Experiment: Particle size of the lipid nanoparticle (dynamic light scattering, Malvern Zetasizer)
Format: physicochemical
Conditions: Table 4; FVII siRNA LNP; Chol/DSPC/stealth lipid S010, molar ratio 45/44/9/2; Z-average
testReadout: Size (nm)

Below: 3 molecules and their reported Size (nm).
CCCCCCCCCCCC(=O)OCCCCCCCCOc1cc(CN(C)C)cc(OCCCCCCCCOC(=O)CCCCCCCCCCC)c1 [Example 53] | 113.3
CCCCC/C=C\C/C=C\CCCCCCCC(=O)OCc1cc(COC(=O)CCCCCCC/C=C\C/C=C\CCCCC)cc(COC(=O)OCCCN(CC)CC)c1 [Example 69] | 98.13
CCCCC/C=C\C/C=C\CCCCCCCC(=O)OCCCCOc1cc(CN2CC(O)C2)cc(OCCCCOC(=O)CCCCCCC/C=C\C/C=C\CCCCC)c1 [Example 49] | 111.1

(A) CCCCC/C=C\CC=CCCCCCCCC(=O)OCCCCOc1cc(CN(C)C)cc(OCCCCOC(=O)CCCCCCCC=CC/C=C\CCCCC)c1C [Example 51]
(B) CCCCCCCC(=O)OCCCCCCOc1cc(CN(C)C)cc(OCCCCCCOC(=O)CCCCCCC)c1 [Example 48]
# return whichever of A and B has the smaller Size (nm) Pick one; state its label.
A

###

Assay: Polydispersity index (PDI) of the lipid nanoparticle (dynamic light scattering)
Type: physicochemical
Conditions: Table 4; FVII siRNA LNP; Chol/DSPC/stealth lipid S010, 45/44/9/2
testReadout: PDI

CCCCC/C=C\C/C=C\CCCCCCCC(=O)OCCCCOc1cc(CN(CC)CC)cc(OCCCCOC(=O)CCCCCCC/C=C\C/C=C\CCCCC)c1C [Example 55] | 0.043
CCCCC/C=C\CC=CCCCCCCCC(=O)OCCCCOc1cc(CN(C)C)cc(OCCCCOC(=O)CCCCCCCC=CC/C=C\CCCCC)c1C [Example 51] | 0.052
CCCCCCCCCCCCCC(=O)OCCCCOc1cc(CN(C)C)cc(OCCCCOC(=O)CCCCCCCCCCCCC)c1 [Example 61] | 0.076
CCCCCCCCCC(=O)OCCCCCCCC(=O)OCc1cc(COC(=O)CCCCCCCOC(=O)CCCCCCCCC)cc(CN(C)C)c1 [Example 83] | 0.005
CCCCCCCCCOC(=O)OCCCCCC(=O)OCc1cc(COC(=O)CCCCCOC(=O)OCCCCCCCCC)cc(CN(C)C)c1 [Example 106] | 0.083

(A) CCCCCCCCCCCC(=O)OCCCCCCCCOc1cc(CN(C)C)cc(OCCCCCCCCOC(=O)CCCCCCCCCCC)c1 [Example 53]
(B) CCCCCCCCCCCCC(=O)OCc1cc(COC(=O)CCCCCCCCCCCC)cc(CN(C)C)c1 [Example 34]
# return whichever of A and B has the smaller PDI Pick one; state its label.
B

(a) CCCCCCCC(=O)OCCCCCCCCCC(=O)OCc1cc(COC(=O)CCCCCCCCCOC(=O)CCCCCCC)cc(CN(C)C)c1 [Example 86]
(b) CCCCC/C=C\C/C=C\CCCCCCCCOC(=O)CCC(=O)OCc1cc(COC(=O)CCC(=O)OCCCCCCCC/C=C\C/C=C\CCCCC)cc(CN(C)C)c1 [Example 77]
# return whichever of a and b has the smaller PDI Pick one; state its label.
b
(b: 0.014, a: 0.058)
